test: Intracellular total glutathione (GSH); conditions: human
endpoint.name: CC50 at 72 h (nM)

smiles.data	quantitative.result
C=C(C)[C@H]1Cc2c(ccc3c2O[C@@H]2COc4cc(OC)c(OC)cc4[C@@H]2C3=O)O1	100

====

test system: H4IIE cells; assay: Cell number (propidium iodide); format: cell-based, rat; conditions: rat, 24 h

smiles.data	measured.target	CC50, µM
COc1cccc2c1C(=O)c1c(O)c3c(c(O)c1C2=O)C[C@@](O)(C(=O)CO)C[C@@H]3O[C@H]1C[C@H](N)[C@H](O)[C@H](C)O1	H4IIE cells	9

====

assay: MemTox membrane leakage (AK / α-GST); assay type: cell-based, rat; conditions: rat, H4IIE rat hepatoma cells, H4IIE, 24 HR exposure; read-out: MemTox TC50

smiles.data	CC50 at 24 h
COc1cccc2c1C(=O)c1c(O)c3c(c(O)c1C2=O)C[C@@](O)(C(=O)CO)C[C@@H]3O[C@H]1C[C@H](N)[C@H](O[C@@H]2CCCCO2)[C@H](C)O1	50 µM
CC[C@@]1(O)C(=O)OCc2c1cc1n(c2=O)Cc2cc3ccccc3nc2-1	> 300 µM

====

assay: MTT reduction; format: cell-based, rat; conditions: rat cardiomyocytes (CM), 24 HR exposure; read-out: MTT TC50

smiles.data	CC50 at 24 h, µM
C=C(C)[C@H]1Cc2c(ccc3c2O[C@@H]2COc4cc(OC)c(OC)cc4[C@@H]2C3=O)O1	33

====

Listed here are molecules together with their documented CC50 at 24 h.
experiment: MemTox membrane leakage (AK / α-GST); type: cell-based, rat; conditions: rat, MemTox TC50

smiles.data	CC50 at 24 h
O=C1c2c(O)ccc(O)c2C(=O)c2c(NCCNCCO)ccc(NCCNCCO)c21	> 300 µM
O=C1Nc2ccc(Cl)cc2[C@@](C#CC2CC2)(C(F)(F)F)O1	181 µM
Nc1nc(NC2CC2)c2ncn([C@H]3C=C[C@@H](CO)C3)c2n1	> 300 µM
Cc1cccc(C)c1OCC(=O)N[C@@H](Cc1ccccc1)[C@@H](O)C[C@H](Cc1ccccc1)NC(=O)[C@H](C(C)C)N1CCCNC1=O	> 300 µM

====

tested on: rat cardiomyocytes; experiment: MemTox membrane leakage (AK / α-GST); type: cell-based
endpoint.name: CC50

smiles.data	measured.target	result
Cc1cn([C@H]2C[C@H](N=[N+]=[N-])[C@@H](CO)O2)c(=O)[nH]c1=O	rat cardiomyocytes	> 300 µM

====

assay: Intracellular ATP levels; type: cell-based, rat; settings: rat, ATP TC50
Listed here are molecules together with their documented CC50 at 24 h.

molecule	comparative.sign	CC50 at 24 h [µM]
O=C1c2c(O)ccc(O)c2C(=O)c2c(NCCNCCO)ccc(NCCNCCO)c21	=	5
Nc1nc(NC2CC2)c2ncn([C@H]3C=C[C@@H](CO)C3)c2n1	=	154
O=C1Nc2ccc(Cl)cc2[C@@](C#CC2CC2)(C(F)(F)F)O1	=	162
COc1cccc2c1C(=O)c1c(O)c3c(c(O)c1C2=O)C[C@@](O)(C(=O)CO)C[C@@H]3O[C@H]1C[C@H](N)[C@@H](O)[C@H](C)O1 [EPIRUBICIN, epirubicin]	=	32
Cc1ccnc2c1NC(=O)c1cccnc1N2C1CC1	>	300
CC(=O)[C@]1(O)Cc2c(O)c3c(c(O)c2[C@@H](O[C@H]2C[C@H](N)[C@H](O)[C@H](C)O2)C1)C(=O)c1ccccc1C3=O	=	2
Cc1cccc(C)c1OCC(=O)N[C@@H](Cc1ccccc1)[C@@H](O)C[C@H](Cc1ccccc1)NC(=O)[C@H](C(C)C)N1CCCNC1=O	=	195
CC(C)Nc1cccnc1N1CCN(C(=O)c2cc3cc(NS(C)(=O)=O)ccc3[nH]2)CC1	=	257

====

Tested on: H4IIE cells
Test: MemTox membrane leakage (AK / α-GST)
Format: cell-based, rat
Description: One test compound (Compound A) was received as dry powder and evaluated for potential cytotoxicity in a battery of in vitro assays. The compound was tested using both rat cardiomyocytes (CM) from rat neonates and a rat hepatoma (H4IIE) cell line. […] General cytotoxicity was evaluated by monitoring membrane integrity, mitochondrial function, cell proliferation, oxidative stress, and apoptosis. […] The means of each exposure group (n=3-7) were calculated for each assay performed. […]
endpoint.name: CC50

compound	endpoint.name	result
Cc1cn([C@H]2C[C@H](N=[N+]=[N-])[C@@H](CO)O2)c(=O)[nH]c1=O [AZT]	CC50	> 300 µM

====

Listed here are molecules together with their documented CC50 at 24 h.
assay: MTT reduction; type: cell-based, rat; details: rat, H4IIE rat hepatoma cells, H4IIE, 24 HR exposure; read-out: MTT TC50

molecule	CC50 at 24 h
CC[C@@]1(O)C(=O)OCc2c1cc1n(c2=O)Cc2cc3ccccc3nc2-1 [CAMPTOTHECIN, Camptothecin]	1 µM
COc1cccc2c1C(=O)c1c(O)c3c(c(O)c1C2=O)C[C@@](O)(C(=O)CO)C[C@@H]3O[C@H]1C[C@H](N)[C@H](O[C@@H]2CCCCO2)[C@H](C)O1 [PIRARUBICIN, pirarubicin]	16 µM

====

test: MemTox membrane leakage (AK / α-GST); type: cell-based, rat; conditions: rat

compound	units	CC50 at 24 h
COc1cccc2c1C(=O)c1c(O)c3c(c(O)c1C2=O)C[C@@](O)(C(C)=O)C[C@@H]3O[C@H]1C[C@H](N)[C@H](O)[C@H](C)O1 [DAUNORUBICIN, daunorubicin]	µM	41

====

assay: Intracellular total glutathione (GSH); details: human, C32 cells

compound	CC50 at 24 h, µM
CC[C@@]1(O)C(=O)OCc2c1cc1n(c2=O)Cc2cc3ccccc3nc2-1 [CAMPTOTHECIN, Camptothecin]	1

====

system: rat cardiomyocytes; test: Intracellular ATP levels; format: cell-based
endpoint.name: CC50

smiles.data	measured.target	endpoint.name	result
Cc1cn([C@H]2C[C@H](N=[N+]=[N-])[C@@H](CO)O2)c(=O)[nH]c1=O	rat cardiomyocytes	CC50	> 300 µM

====

assay: Intracellular ATP levels; format: cell-based, rat; details: rat
endpoint.name: CC50 at 6 h (µM)

smiles.data	quantitative.result
COc1cccc2c1C(=O)c1c(O)c3c(c(O)c1C2=O)C[C@@](O)(C(=O)CO)C[C@@H]3O[C@H]1C[C@H](N)[C@H](O)[C@H](C)O1	29

====

system: H4IIE cells; assay: MTT reduction; type: cell-based, rat

compound	measured.target	CC50
Cc1cn([C@H]2C[C@H](N=[N+]=[N-])[C@@H](CO)O2)c(=O)[nH]c1=O [AZT]	H4IIE cells	> 300 µM

====

Listed here are molecules together with their documented CC50 at 72 h.
Test: Intracellular ATP levels
Format: cell-based
Conditions: human, SK-MEL28 cells; SK-MEL28, 72 HR, run #2; read-out: ATP TC50
Method: Intracellular ATP Levels: Cellular Adenosine triphosphate (ATP) was determined with an assay based on a reaction between ATP+D-luciferin+oxygen catalyzed by luciferase to yield Oxyluciferin+AMP+PPi+CO2+light. The emitted light is proportional to the amount of ATP present. […] Plates were analyzed immediately or stored at −20° C. until needed. […] ATP was quantified by adding ATP substrate solution and then reading luminescence on a Packard Fusion Luminescence or equivalent plate reader. […]
endpoint.name: CC50 at 72 h (nM)

smiles.data	units	quantitative.result
C=C(C)[C@H]1Cc2c(ccc3c2O[C@@H]2COc4cc(OC)c(OC)cc4[C@@H]2C3=O)O1	nM	2000
CC[C@@]1(O)C(=O)OCc2c1cc1n(c2=O)Cc2cc3ccccc3nc2-1	nM	100

====

experiment: MemTox membrane leakage (AK / α-GST); assay type: cell-based, rat; conditions: rat

smiles.data	CC50 at 6 h [µM]
COc1cccc2c1C(=O)c1c(O)c3c(c(O)c1C2=O)C[C@@](O)(C(=O)CO)C[C@@H]3O[C@H]1C[C@H](N)[C@H](O)[C@H](C)O1	40

====

Assay: Solubility in culture medium (nephelometry)
Format: physicochemical
Conditions: 37 °C, plasma or biological fluid, kinetic from dmso stock, dosing medium, 37° C.; C32 24 HR; read-out: Highest Soluble Concentration
Protocol: Solubility: The test compounds were prepared in DMSO and the appropriate amounts were then added to complete medium containing 10% bovine serum […] at 37° C. The samples were evaluated using a light scattering technique and a Nephaloskan instrument. Solubility Assay: The test compounds were prepared in DMSO and the appropriate amounts were then added to complete medium containing 10% bovine serum at 37° C. […]
endpoint.name: solubility (µM)

smiles.data	endpoint.name	units	quantitative.result
C=C(C)[C@H]1Cc2c(ccc3c2O[C@@H]2COc4cc(OC)c(OC)cc4[C@@H]2C3=O)O1	solubility	µM	10

====

experiment: MemTox membrane leakage (AK / α-GST); assay type: cell-based, rat; details: rat

smiles.data	CC50 at 3 h
COc1cccc2c1C(=O)c1c(O)c3c(c(O)c1C2=O)C[C@@](O)(C(=O)CO)C[C@@H]3O[C@H]1C[C@H](N)[C@H](O)[C@H](C)O1	> 300 µM
